System: DLD-1 BRCA2(−/−)
Experiment: Cell growth inhibition assay (CellTiter-Glo cell viability)
Format: cell-based
Settings: Homo sapiens, DLD-1, 168 h, DLD-1 BRCA2(−/−) cells, 7 days, CellTiter Glo 2.0
assay_endpoint: pEC50
FYI, pEC50 means -log10 of a concentration in mol per litre.

INPUT: Given the entry CNC(=O)c1ccc(N2CCN([C@H](C)c3ccc4nc(C)c(=O)[nH]c4c3F)CC2)c(F)n1 (single isomer, unassigned) [Example 23] , report its measured pEC50.
OUTPUT: 7.74

INPUT: Continue with Cc1nc2ccc(CN3CCN(c4ccc(C(=O)NC5CC5)nc4)CC3)c(F)c2[nH]c1=O [Example 8]
OUTPUT: 7.41

INPUT: Continue with COCCNC(=O)c1ccc(N2CCN(Cc3ccc4nc(C)c(=O)[nH]c4c3F)CC2)c(F)n1 [Example 10]
OUTPUT: 7.85

INPUT: Continue with Cc1nc2ccc(CN3CCN(c4ccc(C(=O)NC5CC5)nc4F)CC3)c(F)c2[nH]c1=O [Example 1]
OUTPUT: 8.43

* * *

Target: MDR1 (Homo sapiens)
Construct: expressed in transfected cells; host or cells: MDCKII (Madin-Darby canine kidney) cells
Sequence (P08183 whole entry): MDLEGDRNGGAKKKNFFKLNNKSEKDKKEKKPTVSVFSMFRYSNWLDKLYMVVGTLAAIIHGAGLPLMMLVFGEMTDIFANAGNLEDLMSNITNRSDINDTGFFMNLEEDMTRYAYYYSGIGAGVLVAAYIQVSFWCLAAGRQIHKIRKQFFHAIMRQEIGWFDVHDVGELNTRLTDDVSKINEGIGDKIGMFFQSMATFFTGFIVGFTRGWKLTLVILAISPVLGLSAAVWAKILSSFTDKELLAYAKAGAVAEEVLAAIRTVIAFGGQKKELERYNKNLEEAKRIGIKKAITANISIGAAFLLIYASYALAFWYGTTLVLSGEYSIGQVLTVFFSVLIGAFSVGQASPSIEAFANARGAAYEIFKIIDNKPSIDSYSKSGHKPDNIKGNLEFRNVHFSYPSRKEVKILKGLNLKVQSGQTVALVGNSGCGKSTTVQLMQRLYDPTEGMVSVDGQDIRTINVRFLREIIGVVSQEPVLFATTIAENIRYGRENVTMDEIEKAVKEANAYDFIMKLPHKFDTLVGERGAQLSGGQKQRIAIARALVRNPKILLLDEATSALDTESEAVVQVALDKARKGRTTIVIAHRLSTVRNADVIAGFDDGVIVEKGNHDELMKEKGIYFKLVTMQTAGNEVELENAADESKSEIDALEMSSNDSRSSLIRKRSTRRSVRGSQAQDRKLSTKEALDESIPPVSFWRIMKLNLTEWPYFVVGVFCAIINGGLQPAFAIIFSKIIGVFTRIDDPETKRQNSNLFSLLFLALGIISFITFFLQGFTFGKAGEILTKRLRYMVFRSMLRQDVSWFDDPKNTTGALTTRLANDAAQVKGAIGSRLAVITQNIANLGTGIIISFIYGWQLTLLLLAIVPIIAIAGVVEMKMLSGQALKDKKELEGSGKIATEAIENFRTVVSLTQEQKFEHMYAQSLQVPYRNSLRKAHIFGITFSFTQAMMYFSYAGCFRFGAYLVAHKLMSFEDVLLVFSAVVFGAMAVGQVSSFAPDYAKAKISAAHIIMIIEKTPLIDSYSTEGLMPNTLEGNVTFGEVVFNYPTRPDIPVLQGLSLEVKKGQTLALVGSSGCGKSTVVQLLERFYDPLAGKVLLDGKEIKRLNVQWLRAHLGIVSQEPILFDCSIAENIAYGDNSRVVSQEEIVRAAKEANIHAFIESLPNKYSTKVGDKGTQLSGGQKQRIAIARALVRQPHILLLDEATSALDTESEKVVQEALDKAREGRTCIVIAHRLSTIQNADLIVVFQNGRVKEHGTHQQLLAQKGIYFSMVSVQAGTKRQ
Assay: In vitro human transporter efflux, MDCKII cells expressing MDR1
Format: in vitro ADME
Conditions: MDCK-MDR1, pH 7.4, read-out: MDCK-MDR1 Papp BA
Listed compounds paired with reported Papp B→A at 2 h, 10 μM

These solved cases illustrate the format of a correct answer.
Cc1nc2ccc(CN3CCN(c4ccc(C(=O)N[C@@H]5CC5(F)F)nc4F)CC3)c(F)c2[nH]c1=O (single isomer, unassigned): 16.4 ×10⁻⁶ cm/s
Cc1nc2ccc(CN3CCN(c4ccc(C(=O)NC5CC5)nc4F)CC3)c(F)c2[nH]c1=O: 30 ×10⁻⁶ cm/s

Note: attention shifts to another entry.
INPUT: Record Cc1nc2ccc(CN3CCN(c4ccc(C(=O)NCC(F)F)nc4F)CC3)c(F)c2[nH]c1=O : what is its Papp B→A at 2 h, 10 μM with MDR1 (Homo sapiens)?
OUTPUT: 18.2 ×10⁻⁶ cm/s

* * *

Target: BCRP (Homo sapiens, UniProt Q9UNQ0)
Construct: expressed in transfected cells; host or cells: MDCKII (Madin-Darby canine kidney) cells
Sequence (Q9UNQ0 whole entry): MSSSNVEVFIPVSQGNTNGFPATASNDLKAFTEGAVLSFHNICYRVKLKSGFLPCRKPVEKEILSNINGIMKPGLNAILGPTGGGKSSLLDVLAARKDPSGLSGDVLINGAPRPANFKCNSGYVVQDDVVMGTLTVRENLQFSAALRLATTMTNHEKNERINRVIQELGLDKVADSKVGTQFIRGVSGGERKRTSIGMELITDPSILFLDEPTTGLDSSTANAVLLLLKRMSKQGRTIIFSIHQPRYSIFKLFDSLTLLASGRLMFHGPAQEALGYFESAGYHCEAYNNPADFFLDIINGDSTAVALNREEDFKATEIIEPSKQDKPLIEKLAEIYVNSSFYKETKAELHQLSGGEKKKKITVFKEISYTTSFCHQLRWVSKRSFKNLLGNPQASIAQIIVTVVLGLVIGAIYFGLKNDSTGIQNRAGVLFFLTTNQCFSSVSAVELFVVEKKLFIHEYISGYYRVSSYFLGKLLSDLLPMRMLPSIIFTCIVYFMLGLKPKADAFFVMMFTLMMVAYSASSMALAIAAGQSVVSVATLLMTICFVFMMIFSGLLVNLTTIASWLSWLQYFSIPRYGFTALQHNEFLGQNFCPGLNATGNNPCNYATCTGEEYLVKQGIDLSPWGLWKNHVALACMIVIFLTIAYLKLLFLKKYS
Assay: In vitro human transporter efflux, MDCKII cells expressing BCRP
Type: in vitro ADME
Conditions: pH 7.4, read-out: BCRP Papp AB
Listed molecules paired with reported Papp A→B at 2 h, 10 μM
Write it as a number; the unit ×10⁻⁶ cm/s goes unstated.

These solved cases illustrate the format of a correct answer.
Cc1nc2ccc(CN3CCN(c4ccc(C(=O)N[C@@H]5CC5(F)F)nc4F)CC3)c(F)c2[nH]c1=O (single isomer, unassigned): 21.4
Cc1nc2ccc(CN3CCN(c4ccc(C(=O)NCC(F)F)nc4F)CC3)c(F)c2[nH]c1=O: 28

INPUT: Given the entry Cc1nc2ccc(CN3CCN(c4ccc(C(=O)NC5CC5)nc4F)CC3)c(F)c2[nH]c1=O , report its measured Papp A→B at 2 h, 10 μM.
OUTPUT: 25.7

* * *

Test system: DLD-1 BRCA2(−/−)
Experiment: Cell growth inhibition assay (CellTiter-Glo cell viability)
Assay type: cell-based
Conditions: Homo sapiens, DLD-1, 168 h, DLD-1 BRCA2(−/−) cells, 7 days, CellTiter Glo 2.0
assay_endpoint: pEC50
FYI, pEC50 means -log10 of a concentration in mol per litre.

These solved cases illustrate the format of a correct answer.
Cc1nc2ccc(CN3CCN(c4ccc(C(=O)N[C@@H]5CC5(F)F)nc4F)CC3)c(F)c2[nH]c1=O (single isomer, unassigned) [Example 21]: 8.51
CNC(=O)c1ccc(C2CCN(Cc3ccc4nc(C)c(=O)[nH]c4c3F)CC2)c(F)n1 [Example 5]: 7.64
CCc1nc2ccc(C(C)N3CCN(c4ccc(C(=O)NC)nc4)CC3)c(F)c2[nH]c1=O (single isomer, unassigned) [Example 15]: 7.55

INPUT: Given the entry Cc1nc2ccc(CN3CCC(c4ccc(C(=O)NC5CC5)nc4F)CC3)c(F)c2[nH]c1=O [Example 27] , report its measured pEC50.
OUTPUT: 7.57

INPUT: Continue with Cc1nc2ccc(CN3CCN(c4ccc(C(=O)N[C@H]5CC5(F)F)nc4F)CC3)c(F)c2[nH]c1=O (single isomer, unassigned) [Example 20]
OUTPUT: 8.24
